biological target: BACE1 (Homo sapiens, UniProt P56817); construct: recombinant BACE1 protein in a final concentration of 0.04 μg/ml; experiment: BACE1 biochemical FRET based assay; conditions: recombinant BACE1 0.04 μg/ml, 20 μM substrate, 450 min, pH 5.0; read-out: BIOCHEMICAL FRET BASED ASSAY pIC50 (converted)
Sequence (P56817 46-501): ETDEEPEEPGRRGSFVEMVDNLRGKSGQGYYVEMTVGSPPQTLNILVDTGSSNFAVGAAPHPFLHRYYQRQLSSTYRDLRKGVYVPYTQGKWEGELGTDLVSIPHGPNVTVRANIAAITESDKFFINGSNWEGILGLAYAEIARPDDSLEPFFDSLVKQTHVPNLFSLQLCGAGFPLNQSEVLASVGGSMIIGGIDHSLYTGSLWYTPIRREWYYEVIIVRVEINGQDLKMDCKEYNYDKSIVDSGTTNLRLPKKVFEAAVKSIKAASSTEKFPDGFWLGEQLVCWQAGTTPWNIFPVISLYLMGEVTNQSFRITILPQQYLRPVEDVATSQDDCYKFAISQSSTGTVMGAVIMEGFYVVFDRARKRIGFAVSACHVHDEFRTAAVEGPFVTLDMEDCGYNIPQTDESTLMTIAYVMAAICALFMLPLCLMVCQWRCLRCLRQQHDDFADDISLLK
endpoint-name: IC50 (nM)

>  <compound>
COc1ncc(Br)c2c1C[C@@]1(c3cc(O)ccc3F)N=C(N)SC[C@H]1C2 [Compound 189]

>  <qualifier-sign>
>

>  <reported-measurement>
10000

$$$$
>  <compound>
COc1nccc2c1CC1(c3cc(O)ccc3F)N=C(N)SCC1C2 (racemic) [Compound 5]

>  <qualifier-sign>
=

>  <reported-measurement>
162

$$$$
>  <compound>
COc1nccc2c1CC1(c3cc(Br)c(F)cc3F)N=C(N)SCC1C2 (racemic) [Compound 6]

>  <qualifier-sign>
=

>  <reported-measurement>
234

$$$$
>  <compound>
COc1nccc2c1C[C@]1(c3ccccc3F)N=C(N)SC[C@@H]1C2 (racemic) [Compound 2]

>  <qualifier-sign>
=

>  <reported-measurement>
158

$$$$
>  <compound>
COc1nccc2c1CC1(c3cc4c(cc3F)OCC(=O)N4)N=C(N)SCC1C2 (racemic) [Compound 15]

>  <qualifier-sign>
=

>  <reported-measurement>
30.2

$$$$
>  <compound>
COc1ncc(-c2cnccc2C)c2c1CC1(c3ccc(Cl)cc3F)N=C(N)SCC1C2 (single isomer, unassigned) [Compound 200]

>  <qualifier-sign>
=

>  <reported-measurement>
17.8

$$$$
>  <compound>
COc1nccc2c1CC1(c3ccc(Cl)cc3F)N=C(N)SCC1C2 (racemic) [Compound 7]

>  <qualifier-sign>
=

>  <reported-measurement>
145

$$$$
>  <compound>
COc1nccc2c1CC1(c3cc(-c4cncc(C#N)c4)ccc3F)N=C(N)SCC1C2 (racemic) [Compound 12]

>  <qualifier-sign>
=

>  <reported-measurement>
91.2

$$$$
>  <compound>
CCOc1nccc2c1CC1(c3ccc(F)cc3F)N=C(N)SCC1C2 (racemic) [Compound 4]

>  <qualifier-sign>
=

>  <reported-measurement>
166

$$$$
>  <compound>
COc1nccc2c1C[C@]1(c3ccc(F)cc3F)N=C(N)SC[C@@H]1C2 [Compound 35]

>  <qualifier-sign>
=

>  <reported-measurement>
34.7

$$$$
>  <compound>
COc1nccc2c1C[C@]1(c3ccc(F)cc3F)N=C(N)OC[C@@H]1C2 (racemic) [Compound 30]

>  <qualifier-sign>
=

>  <reported-measurement>
692

$$$$
